Listing of recorded IC50 by entry.
Test system: 5α-reductase
ASSAY DETAILS: Whole-cell 5α-reductase assay, isozyme not given
Assay type: cell-based, human
CONDITION SET: isozyme not stated

- STRUCTURE NOTATION: "CCCCC/C=C\\C/C=C\\C/C=C\\CCCCC(=O)O[C@H]1CC[C@@]2(C)C(=CC[C@H]3[C@@H]4CC[C@H]([C@H](C)CCCC(C)C)[C@@]4(C)CC[C@@H]32)C1"
  MEASURED: "> 100 µM"

Exercise: # return IC50 for CCCCC/C=C\C/C=C\C/C=C\CCCCC(=O)OC , test system: 5α-reductase
Key: > 100 µM
